Numbers sourced from patent US20130244929A1.

Biological target: SpsB (Staphylococcus aureus, UniProt P0A070)
Construct: using a bacterial membrane fraction as a source of SpsB; from tissue
Sequence (P0A070 1-191): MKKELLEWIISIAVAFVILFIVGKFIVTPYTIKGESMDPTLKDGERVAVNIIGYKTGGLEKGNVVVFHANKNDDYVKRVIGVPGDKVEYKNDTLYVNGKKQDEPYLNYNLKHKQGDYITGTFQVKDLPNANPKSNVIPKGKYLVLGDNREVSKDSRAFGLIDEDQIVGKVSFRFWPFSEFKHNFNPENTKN
Assay: Inhibition of SpsB enzyme activity (fluorescence-based assay, bacterial membrane fraction)
Type: biochemical
Method: Signal peptidase enzyme activity was measured in a fluorescence-based assay using a bacterial membrane fraction as a source of SpsB (See Bruton et al., 2003, Eur J Med Chem 38:351-356). The SpsB substrate is a synthetic lipopeptide, decanoyl-K(DABCYL)-TPTAKA↓ASKKD-D(EDANS)—NH2 (prepared by JPT Peptide Technologies, Berlin, Germany). […] SpsB mediated cleavage of the peptide substrate was detected as an increase in fluorescence (excitation 340 nm/emission 460 nm).
Listed below: IC50 values for each entry.

- CCCCCCCCCc1ccc(-c2ccc(C(=O)NCCC(=O)N3C[C@@H](N)C[C@H]3C(=O)N(C)[C@@H]3C(=O)N[C@@H](C)C(=O)N[C@H](C(=O)O)Cc4ccc(O)c(c4)-c4cc3ccc4O)cc2)cc1 [EXAMPLE 44]: < 10 nM
- CCCCCc1ccc(-c2ccc(C(=O)NCCC(=O)N[C@@H](CCCCN)C(=O)N(C)[C@@H]3C(=O)N[C@@H](C)C(=O)N[C@H](C(=O)O)Cc4ccc(O)c(c4)-c4cc3ccc4O)cc2)cc1 [EXAMPLE 35]: < 10 nM

Lab note: next compound to report on.
Let me check: CCCCCCCCCc1ccc(-c2ccc(C(=O)NCCC(=O)N[C@@H](CCCCO)C(=O)N(C)[C@@H]3C(=O)N[C@@H](C)C(=O)N[C@H](C(=O)O)Cc4ccc(O)c(c4)-c4cc3ccc4O)cc2)cc1 [EXAMPLE 50] , system SpsB (Staphylococcus aureus, UniProt P0A070), measured IC50 is < 10 nM
